From: the supplement of paper PMC10567573

B1: ZNF193 (parent)
chain: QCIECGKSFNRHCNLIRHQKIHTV

variants of: B1; assay: protein stability index of a GFP-peptide fusion (GPS, HEK-293T) (PSI 1-6); higher = more stable; conditions: c terminus: a fixed tail appended;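 further: lentivirally expressed fusions sorted by FACS into six bins by GFP to DsRed ratio, PSI derived from sequencing read proportions per bin multiplied by bin number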
Value Kind: protein stability index

Worked cases, answers included:
Looking up N14Y , I see its protein stability index listed as 2.33

Looking up S8C , I see its protein stability index listed as 3.85

Looking up N10F , I see its protein stability index listed as 3.02

***
Looking up L15V , I see its protein stability index listed as 2.34

Looking up I3Q , I see its protein stability index listed as 4.09

Looking up R11L , I see its protein stability index listed as 3.5

Looking up Q19W , I see its protein stability index listed as 2.25
